Test system: grafted B16 F0 murine melanoma tumour
Assay: Biodistribution of the ^125I-labelled molecules in the melanoma-bearing mouse (autoradiography of whole-body sections)
Conditions: Sc; 24 H
Where a name gives a salt, the structure may show the parent alone.
Think of 0.6 as a floor: if Biodistribution, Mean, Sc stands on it or above, it is condition met; beneath it, condition not met.

Please review the entries below; each comes with its answer.
compound | category
CCN(CC)CCNC(=O)c1c[nH]c2ccc(I)cc2c1=O [compound 35, dihydrochloride] | condition not met
CCCN(CCC)CCCCNC(=O)c1ccc2cc(I)ccc2n1 [compound 49, dihydrochloride] | condition met
CCN(CC)CCNC(=O)c1cccc2cc3cc(I)ccc3nc12 [compound 111, dihydrochloride] | condition met
CCN(CC)CCNC(=O)c1cc2c(I)cccc2cn1 [compound 39, dihydrochloride] | condition met

# evaluate next
In plain terms: is recorded Biodistribution, Mean, Sc at least 0.6 for CCN(CC)CCNC(=O)c1ccc2cncc(I)c2n1.Cl.Cl [compound 142] ?
condition met

###

Tested on: grafted B16 F0 murine melanoma tumour
Assay: Biodistribution of the ^125I-labelled molecules in the melanoma-bearing mouse (autoradiography of whole-body sections)
Conditions: thyroid; 6 H
Counter-ions that a name gives are not always drawn.
Biodistribution, Mean, thyroid listing for selected compounds.
The answer should be a number; do not append a unit.

compound | reported.result
CCN(CC)CCNC(=O)c1c[nH]c2ccc(I)cc2c1=O [compound 35, dihydrochloride] | 8.55
CCN(CC)CCNC(=O)c1cccc2c(Nc3ccc(NS(C)(=O)=O)cc3OC)c3cc(I)ccc3nc12 [compound 129, dihydrochloride] | 34.81

Consider the record given below.
Provide value of Biodistribution, Mean, thyroid for this record tested with grafted B16 F0 murine melanoma tumour: CCN(CC)CCNC(=O)c1cc2c(I)cccc2cn1 [compound 39, dihydrochloride]
48.93

###

Test system: grafted B16 F0 murine melanoma tumour
Assay: Biodistribution of the ^125I-labelled molecules in the melanoma-bearing mouse (autoradiography of whole-body sections)
Details: spleen; 3 H
Counter-ions that a name gives are not always drawn.
Biodistribution, Mean, spleen listing for selected compounds.
// no unit, no text: just the number

Here is how some compounds turned out for Biodistribution, Mean, spleen.
compound | target.of.assay | Biodistribution, Mean, spleen
CCN(CC)CCNC(=O)c1c[nH]c2ccc(I)cc2c1=O [compound 35, dihydrochloride] | grafted B16 F0 murine melanoma tumour | 0.28
CCN(CC)CCNC(=O)c1ccc2cncc(I)c2n1.Cl.Cl | grafted B16 F0 murine melanoma tumour | 0.93
CCCN(CCC)CCCCNC(=O)c1ccc2cc(I)ccc2n1 [compound 49, dihydrochloride] | grafted B16 F0 murine melanoma tumour | 16.71
CCN(CC)CCNC(=O)c1cccc2cc3cc(I)ccc3nc12 [compound 111, dihydrochloride] | grafted B16 F0 murine melanoma tumour | 1.29

Name the reported Biodistribution, Mean, spleen value associated with the compound `CCN(CC)CCNC(=O)c1cnc2cc(I)ccc2n1.Cl.Cl`
4.69

###

This section presents molecules with their documented Concentration of radioactivity, uvea (pigmented tissues of the eye), Mean values.
System: grafted B16 F0 murine melanoma tumour
Test: Biodistribution of the ^125I-labelled molecules in the melanoma-bearing mouse (autoradiography of whole-body sections)
Conditions: 6 H after i.v. administration, ^125I-labelled compound
Counter-ions that a name gives are not always drawn.

molecule | reported.result
CCN(CC)CCNC(=O)c1ccc2cc(I)ccc2c1 [compound 3, hydrochloride] | 12.76 % ID/g
CCN(CC)CCNC(=O)c1nc2ccc(I)cc2[nH]1.Cl.Cl | 10.09 % ID/g
CCN(CC)CCNC(=O)c1cc2cc(I)ccc2[nH]1 [compound 10, hydrochloride] | 13.20 % ID/g
CCN(CC)CCNC(=O)c1cc2c(I)cccc2s1.Cl | 16.29 % ID/g
CCN(CC)CCNC(=O)c1nc2ccccn2c1I [compound 16, dihydrochloride] | 22.16 % ID/g

Consider the molecule shown here: `CCN(CC)CCNC(=O)c1ccc2cc(I)ccc2n1.Cl.Cl` What is its recorded Concentration of radioactivity, uvea (pigmented tissues of the eye), Mean?
36.62 % ID/g

# get_value(readout='Concentration of radioactivity, uvea (pigmented tissues of the eye), Mean', item= CCN(CC)CCNC(=O)c1ccc(I)nc1 [compound 7, dihydrochloride] )
11.50 % ID/g

###

Assay: Elimination of the molecules: cumulative urinary and faecal excretion 0-72 hours
Type: in vivo, mouse
Details: cumulative excretion 0-72 hours, urine, mice in metabolic cages
Where a name gives a salt, the structure may show the parent alone.
observation.type: Urinary elimination 0-72 hours (Urine) (%)
Write the answer as a number in %, unit excluded.

Example entries begin here.
compound | unit.of.measurement | Urinary elimination 0-72 hours (Urine)
CCN(CC)CCNC(=O)c1cccc2c(=O)c3cc(I)ccc3[nH]c12 [compound 84, hydrochloride] | % | 10.4
CCN(CC)CCNC(=O)c1ccc(I)cc1 [BZA, N-(2-diethylaminoethyl)-4-iodobenzamide, reference compound] | % | 83.1

The record that follows has no Urinary elimination 0-72 hours (Urine) shown yet.
Given the compound CCN(CC)CCNC(=O)c1cccc2cc3cc(I)ccc3nc12 [compound 111, dihydrochloride] , what is its reported Urinary elimination 0-72 hours (Urine)?
8.5

###

Tested on: grafted B16 F0 murine melanoma tumour
Test: Biodistribution of the ^125I-labelled molecules in the melanoma-bearing mouse (autoradiography of whole-body sections)
Settings: 6 H after i.v. administration, ^125I-labelled compound
Where a name gives a salt, the structure may show the parent alone.
# label = satisfied if Concentration of radioactivity, brain, Mean >= 0.4 % ID/g else not satisfied

compound | target.of.assay | category
CCN(CC)CCNC(=O)c1ccc2cc(I)ccc2n1.Cl.Cl | grafted B16 F0 murine melanoma tumour | not satisfied
CCN(CC)CCNC(=O)c1nc2ccccn2c1I [compound 16, dihydrochloride] | grafted B16 F0 murine melanoma tumour | satisfied

Could you please find out whether CCN(CC)CCNC(=O)c1cc2cc(I)ccc2[nH]1 [compound 10, hydrochloride] has Concentration of radioactivity, brain, Mean that meets 0.4 % ID/g or exceeds it?
satisfied

# bool: Concentration of radioactivity, brain, Mean of CCN(CC)CCNC(=O)c1ccc2cc(I)ccc2c1 [compound 3, hydrochloride] >= 0.4 % ID/g
not satisfied

Kindly determine if Concentration of radioactivity, brain, Mean recorded for CCN(CC)CCNC(=O)c1ccc(I)nc1 [compound 7, dihydrochloride] is above or exactly 0.4 % ID/g.
not satisfied

###

System: grafted B16 F0 murine melanoma tumour
Experiment: Biodistribution of the ^125I-labelled molecules in the melanoma-bearing mouse (autoradiography of whole-body sections)
Details: lungs; 6 H
Where a name gives a salt, the structure may show the parent alone.
observation.type: Biodistribution, Mean, lungs
Reply briefly: the number, and no unit.

compound | Biodistribution, Mean, lungs
CCN(CC)CCNC(=O)c1cc2c(I)cccc2cn1 [compound 39, dihydrochloride] | 2.05
CCN(CC)CCNC(=O)c1cnc2cc(I)ccc2n1.Cl.Cl | 4.46
CCN(CC)CCNC(=O)c1c[nH]c2ccc(I)cc2c1=O [compound 35, dihydrochloride] | 0.15
CCN(CC)CCNC(=O)c1ccc2cncc(I)c2n1.Cl.Cl | 1.26
CCN(CC)CCNC(=O)c1cccc2cc3cc(I)ccc3nc12 [compound 111, dihydrochloride] | 0.59

As a next step, examine the compound that follows.
Given the entry CCCN(CCC)CCCCNC(=O)c1ccc2cc(I)ccc2n1 [compound 49, dihydrochloride] , what Biodistribution, Mean, lungs was observed with grafted B16 F0 murine melanoma tumour?
3.34

###

Listed next: entries and their corresponding Biodistribution, Mean, Ic.
Test system: grafted B16 F0 murine melanoma tumour
Assay: Biodistribution of the ^125I-labelled molecules in the melanoma-bearing mouse (autoradiography of whole-body sections)
Details: Ic; 24 H
Counter-ions that a name gives are not always drawn.

molecule | Biodistribution, Mean, Ic
CCN(CC)CCNC(=O)c1ccc2cncc(I)c2n1.Cl.Cl | 0.82
CCCN(CCC)CCCCNC(=O)c1ccc2cc(I)ccc2n1 [compound 49, dihydrochloride] | 1.21
CCN(CC)CCNC(=O)c1cc2c(I)cccc2cn1 [compound 39, dihydrochloride] | 1.70
CCN(CC)CCNC(=O)c1c[nH]c2ccc(I)cc2c1=O [compound 35, dihydrochloride] | 1.62

Form field: reported Biodistribution, Mean, Ic of CCN(CC)CCNC(=O)c1cccc2cc3cc(I)ccc3nc12 [compound 111, dihydrochloride]
1.83

###

Measured Biodistribution, Mean, Ic by item
System: grafted B16 F0 murine melanoma tumour
Test: Biodistribution of the ^125I-labelled molecules in the melanoma-bearing mouse (autoradiography of whole-body sections)
Conditions: Ic; 3 H
Where a name gives a salt, the structure may show the parent alone.

compound | reported.result
CCN(CC)CCNC(=O)c1cnc2cc(I)ccc2n1.Cl.Cl | 14.63
CCN(CC)CCNC(=O)c1cccc2cc3cc(I)ccc3nc12 [compound 111, dihydrochloride] | 30.20
CCCN(CCC)CCCCNC(=O)c1ccc2cc(I)ccc2n1 [compound 49, dihydrochloride] | 23.54

Suppose we examine the compound CCN(CC)CCNC(=O)c1cc2c(I)cccc2cn1 [compound 39, dihydrochloride] ; what Biodistribution, Mean, Ic value has been reported?
68.64

Fill blank: measured Biodistribution, Mean, Ic of the compound `CCN(CC)CCNC(=O)c1ccc2cncc(I)c2n1.Cl.Cl` is ____.
47.65

Would you kindly share the measured Biodistribution, Mean, Ic for CCN(CC)CCNC(=O)c1c[nH]c2ccc(I)cc2c1=O [compound 35, dihydrochloride] ?
90.12
